Each recorded value in this set is attributed to patent US20050282743A1.

- assayedTarget: T1, GST-ERBIN PDZ domain 1 (Homo sapiens (Human)), Q96RT1
- T1 chain: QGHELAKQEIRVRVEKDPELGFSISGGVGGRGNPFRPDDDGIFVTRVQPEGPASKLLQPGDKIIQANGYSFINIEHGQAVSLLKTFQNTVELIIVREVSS
- assayComment: G assay titration, PDZ 5 ug/ml
outcomeMeasure: Kd (µM)
I only need the number, in µM, no unit after it.

Reported Kd of AGAVRTPLSQVNKVWDQSSV (modifications not checked) [CITRON protein] : 7
